Catalogue of compounds with associated inhibition at 2 µM
target: human Cereblon WT GST-tagged protein (Homo sapiens); construct: purchased CISBIO 64BDCRBNPEH; experiment: CRBN-binding affinity, CEREBLON BINDING kit (HTRF); conditions: 2 µM, read-out: Inhibition Rate at 2 µM (%)

Record excerpt, results attached:
COMPOUND	ASSAYED SYSTEM	inhibition at 2 µM
Cc1nc(C2CCN(Cc3ccc4c(c3)CN(N3CCC(=O)NC3=O)C4=O)CC2)c2c(-c3ccccc3)csc2n1 [GT-08087]	human Cereblon WT GST-tagged protein (Homo sapiens)	60 to 80%
Cc1nc(N2CCN(Cc3ccc4c(c3)CN(N3CCC(=O)NC3=O)C4=O)CC2)c2c(-c3ccccc3)csc2n1 [GT-08066]	human Cereblon WT GST-tagged protein (Homo sapiens)	60 to 80%
Cc1nc(C2=CCN(Cc3ccc4c(c3)CN(N3CCC(=O)NC3=O)C4=O)CC2)c2c3c(sc2n1)CCCC3 [GT-08177]	human Cereblon WT GST-tagged protein (Homo sapiens)	53 to 60%

The measured inhibition at 2 µM associated with O=C1CCN(N2Cc3cc(CN4CC=C(c5ncnc6sc(-c7ccccc7)cc56)CC4)ccc3C2=O)C(=O)N1 [GT-08173] reads 53 to 60%

* * *

system: MV-4-11; test: Cell viability assay (CellTiter-Meiluncell Luminescent), tumor cell proliferation, MV-4-11; details: Homo sapiens, MV4-11, 96 h, read-out: inhibitory activity (IC50, nM) against tumor cells proliferation, MV-4-11
PARAMETER: IC50

Record excerpt, results attached:
O=C1CCN(N2Cc3cc(CN4CCN(c5ccc(C(F)(F)F)cc5)CC4)ccc3C2=O)C(=O)N1 50 to 100 nM
O=C1CCN(N2Cc3cc(CN4CCN(c5cccc(F)c5F)CC4)ccc3C2=O)C(=O)N1 300 to 500 nM
O=C1CCN(N2Cc3cc(CN4CCN(c5ccc(Cl)cc5)CC4)ccc3C2=O)C(=O)N1 500 to 1000 nM
COc1cccc(N2CCN(Cc3ccc4c(c3)CN(N3CCC(=O)NC3=O)C4=O)CC2)c1 100 to 300 nM
O=C1CCN(N2Cc3cc(CN4CCN(c5ccccc5)CC4)ccc3C2=O)C(=O)N1 100 to 300 nM

Now turn to the next molecule.
The measured IC50 associated with `O=C1CCN(N2Cc3cc(CN4CCC(c5cccc(F)c5Cl)CC4)ccc3C2=O)C(=O)N1` reads 300 to 500 nM

* * *

Catalogue of compounds with associated inhibition at 0.5 µM
system: H2228; assay: Cell viability assay (CellTiter-Meiluncell Luminescent), tumor cell proliferation, H2228; settings: Homo sapiens, NCI-H2228, 96 h, read-out: Inhibition Rate at 500 nM (%)

Record excerpt, results attached:
Cc1sc2ncnc(N3CCCN(Cc4ccc5c(c4)CN(N4CCC(=O)NC4=O)C5=O)CC3)c2c1C 30 to 40%
Cc1sc2ncnc(N3CCN(Cc4ccc5c(c4)CN(N4CCC(=O)NC4=O)C5=O)CC3)c2c1C 25 to 30%
O=C1CCN(N2Cc3cc(CN4CCN(c5ncnc6scc(-c7ccccc7)c56)CC4)ccc3C2=O)C(=O)N1 25 to 30%

The measured inhibition at 0.5 µM associated with `Cc1nc(N2CCN(Cc3ccc4c(c3)CN(N3CCC(=O)NC3=O)C4=O)CC2)c2c3c(sc2n1)CCC3` reads 20 to 25%

* * *

Catalogue of molecules with associated inhibition at 2 µM
molecular target: human Cereblon WT GST-tagged protein (Homo sapiens, UniProt Q96SW2); construct: purchased CISBIO 64BDCRBNPEH; experiment: CRBN-binding affinity, CEREBLON BINDING kit (HTRF); conditions: 2 µM, read-out: Inhibition Rate at 2 µM (%)
Sequence (Q96SW2 whole entry): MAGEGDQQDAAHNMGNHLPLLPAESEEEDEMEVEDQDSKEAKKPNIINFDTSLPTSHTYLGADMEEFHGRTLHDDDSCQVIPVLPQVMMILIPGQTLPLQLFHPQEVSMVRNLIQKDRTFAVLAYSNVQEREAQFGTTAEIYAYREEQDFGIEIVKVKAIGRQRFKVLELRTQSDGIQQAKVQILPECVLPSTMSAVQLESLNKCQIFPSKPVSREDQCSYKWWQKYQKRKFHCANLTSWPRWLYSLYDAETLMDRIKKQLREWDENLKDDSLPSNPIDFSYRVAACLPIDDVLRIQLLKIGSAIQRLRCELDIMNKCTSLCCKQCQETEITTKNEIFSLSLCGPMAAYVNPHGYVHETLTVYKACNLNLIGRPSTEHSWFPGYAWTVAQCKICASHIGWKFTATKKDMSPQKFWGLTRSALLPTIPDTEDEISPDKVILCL

Record excerpt, results attached:
O=C1CCN(N2Cc3cc(CN4CC=C(c5ncnc6scc(-c7ccccc7)c56)CC4)ccc3C2=O)C(=O)N1 53 to 60%
O=C1CCN(N2Cc3cc(CN4CCN(c5ncnc6sc7c(c56)CCC7)CC4)ccc3C2=O)C(=O)N1 53 to 60%
O=C1CCN(N2Cc3cc(CN4CCN(c5ncnc6scc(-c7ccccc7)c56)CC4)ccc3C2=O)C(=O)N1 60 to 80%
Cc1nc(C2=CCN(Cc3ccc4c(c3)CN(N3CCC(=O)NC3=O)C4=O)CC2)c2c(-c3ccccc3)csc2n1 60 to 80%

The measured inhibition at 2 µM associated with `Cc1nc(N2CCN(Cc3ccc4c(c3)CN(N3CCC(=O)NC3=O)C4=O)CC2)c2c3c(sc2n1)CCC3` reads 53 to 60%

* * *

system: MM.1S; assay: Cell viability assay (CellTiter-Meiluncell Luminescent), tumor cell proliferation, MM.1S; settings: Homo sapiens, MM1.S, 96 h, read-out: inhibitory activity (IC50, nM) against tumor cells proliferation, MM.1S
PARAMETER: IC50

Record excerpt, results attached:
COMPOUND	ENDPOINT RESULT
O=C1CCN(N2Cc3cc(CN4CCC(N(c5ccccc5)c5ccccn5)CC4)ccc3C2=O)C(=O)N1 [GT-04940]	50 to 100 nM
Cc1cc(C2=CCN(Cc3ccc4c(c3)CN(N3CCC(=O)NC3=O)C4=O)CC2)cs1 [GT-04873]	50 to 100 nM
O=C1CCN(N2Cc3cc(CN4CC=C(c5nccc(Cl)c5Cl)CC4)ccc3C2=O)C(=O)N1 [GT-06392]	300 to 500 nM
O=C1CCN(N2Cc3cc(CN4CCN(C(c5ccccc5)c5ccccc5)CC4)ccc3C2=O)C(=O)N1 [GT-04889]	100 to 300 nM
O=C1CCN(N2Cc3cc(CN4CCN(c5ccc(Cl)cn5)CC4)ccc3C2=O)C(=O)N1 [GT-05127]	500 to 1000 nM
O=C1CCN(N2Cc3cc(CN4CCN(C(c5ccc(F)cc5)c5ccc(F)cc5)CC4)ccc3C2=O)C(=O)N1 [GT-04894]	500 to 1000 nM
O=C1CCN(N2Cc3cc(CN4CC=C(c5n[nH]c6cc(F)ccc56)CC4)ccc3C2=O)C(=O)N1 [GT-07578]	50 to 100 nM
O=C1CCN(N2Cc3cc(CN4CC(=C5CCOc6cc(F)ccc65)C4)ccc3C2=O)C(=O)N1 [GT-05168]	100 to 300 nM

The measured IC50 associated with CC1(C)CCC(CN2CC3CC(C2)N3Cc2ccc3c(c2)CN(N2CCC(=O)NC2=O)C3=O)=C(c2ccc(Cl)cc2)C1 [GT-06456] reads 100 to 300 nM

The measured IC50 associated with O=C1CCN(N2Cc3cc(CN4CCC(N(c5ccccc5)c5ccccc5)CC4)ccc3C2=O)C(=O)N1 [GT-04939] reads 10 to 50 nM

The measured IC50 associated with O=C1CCN(N2Cc3cc(CN4CCC(Nc5ccccc5-c5ccc(Cl)cc5)CC4)ccc3C2=O)C(=O)N1 [GT-04943] reads 10 to 50 nM

The measured IC50 associated with Cc1ccc(C2=CCN(Cc3ccc4c(c3)CN(N3CCC(=O)NC3=O)C4=O)CC2)s1 [GT-04869] reads 50 to 100 nM

The measured IC50 associated with Cc1ccc(Sc2ccccc2N2CCN(Cc3ccc4c(c3)CN(N3CCC(=O)NC3=O)C4=O)CC2)c(C)c1 [GT-04867] reads 500 to 1000 nM

The measured IC50 associated with O=C1CCN(N2Cc3cc(CN4CC=C(c5ccsc5)CC4)ccc3C2=O)C(=O)N1 [GT-04871] reads 100 to 300 nM

The measured IC50 associated with O=C1CCN(N2Cc3cc(CN4CCN(c5cccc(Cl)n5)CC4)ccc3C2=O)C(=O)N1 [GT-05126] reads 300 to 500 nM

The measured IC50 associated with Cc1cscc1C1=CCN(Cc2ccc3c(c2)CN(N2CCC(=O)NC2=O)C3=O)CC1 [GT-04872] reads 10 to 50 nM

* * *

tested on: H2228; test: Cell viability assay (CellTiter-Meiluncell Luminescent), tumor cell proliferation, H2228; conditions: Homo sapiens, NCI-H2228, 96 h, read-out: Inhibition Rate at 500 nM (%)
PARAMETER: inhibition at 0.5 µM

Record excerpt, results attached:
MOLECULE	inhibition at 0.5 µM
Cc1sc2ncnc(C3CCN(Cc4ccc5c(c4)CN(N4CCC(=O)NC4=O)C5=O)CC3)c2c1C [GT-08084]	25 to 30%
O=C1CCN(N2Cc3cc(CN4CCC(c5ncnc6sc(-c7ccccc7)cc56)CC4)ccc3C2=O)C(=O)N1 [GT-08085]	30 to 40%
Nc1cccc2c1CN(C1CCC(=O)NC1=O)C2=O (centres unmarked) [lenalidomide, reference compound]	15 to 20%
O=C1CCN(N2Cc3cc(CN4CCC(c5cccc(F)c5F)CC4)ccc3C2=O)C(=O)N1 [GT-08194]	20 to 25%
Cc1cc2c(C3CCN(Cc4ccc5c(c4)CN(N4CCC(=O)NC4=O)C5=O)CC3)ncnc2s1 [GT-08083]	30 to 40%

The measured inhibition at 0.5 µM associated with O=C1CCN(N2Cc3cc(CN4CC=C(c5ncnc6scc(-c7ccccc7)c56)CC4)ccc3C2=O)C(=O)N1 [GT-08174] reads 20 to 25%

The measured inhibition at 0.5 µM associated with Cc1nc(N2CCN(Cc3ccc4c(c3)C(=O)N(N3CCC(=O)NC3=O)C4=O)CC2)c2c(-c3ccccc3)csc2n1 [GT-08099] reads 30 to 40%

The measured inhibition at 0.5 µM associated with O=C1CCN(N2Cc3cc(CN4CC=C(c5cccc(F)c5Cl)CC4)ccc3C2=O)C(=O)N1 [GT-08055] reads 20 to 25%
